System: Streptococcus pyogenes
Assay notes: Experimental bacterial infection in mice, ED50
Assay type: in vivo
Condition notes: Streptococcus pyogenes, po, two doses, dose protecting 50% of animals, read-out: Oral ED50
Property: ED50 (mg/kg)

• CC[C@H]1OC(=O)[C@H](C)[C@@H](O[C@H]2C[C@@](C)(OC)[C@@H](O)[C@H](C)O2)[C@H](C)[C@@H](O[C@@H]2O[C@H](C)C[C@H](N(C)C)[C@H]2O)[C@](C)(O)C[C@@H](C)[C@H]2[C@H](C)[C@@H](OCN2Cc2ccccc2)[C@]1(C)O = 15.6
• CC[C@H]1OC(=O)[C@H](C)[C@@H](O[C@H]2C[C@@](C)(OC)[C@@H](O)[C@H](C)O2)[C@H](C)[C@@H](O[C@@H]2O[C@H](C)C[C@H](N(C)C)[C@H]2O)[C@](C)(O)C[C@@H](C)[C@H](N2CCCCC2)[C@H](C)[C@@H](O)[C@]1(C)O = 23.6

Ref: patent EP0238178B1
